test system: SK-MEL-5; test: NCI tumour cell line growth inhibition, 48 h
Activity calls are given as the source filed them. Cut-off read from the data, not from the text of the source: active = GI50 up to about 1.1 µM and inactive = higher.
What GI50 was measured for each of the following?

So for CC1CCC2C(C)C3C(CC4C5CC=C6CC(OC7OC(CO)C(O)C(OC8OC(CO)C(O)C(O)C8O)C7OC7OC(C)C(O)C(O)C7O)CCC6(C)C5CCC43C)N2C1 (centres undefined) , the logged GI50 turned out to be 18.1 µM (inactive)

So for COc1ccc(/C=C(\C(C)=O)C(=O)Nc2ccccc2)cc1 , the logged GI50 turned out to be > 100 µM (inactive)

So for O=[N+]([O-])c1ccc(Cl)c(C2CC(c3cccc4ccccc34)=Nc3ccccc3S2)c1 (centres undefined) , the logged GI50 turned out to be 16.7 µM (inactive)

So for COc1ccc2c(c1)N=C1CSC(c3c(Cl)cccc3[N+](=O)[O-])N1C2 (centres undefined) , the logged GI50 turned out to be 19.4 µM (inactive)

###

tested on: LXFL 529; assay: NCI tumour cell line growth inhibition, 48 h
Active and inactive are the calls of the source. No stated cut-off is given here; in the data, active = GI50 up to about 1.1 µM and inactive = higher.
attribute.measured: GI50

So for Cc1cc(=O)c2c([nH]1)NS(=O)(=O)NC2=O , the logged GI50 turned out to be > 100 µM (inactive)

So for CN(CCN1C(=O)c2cc([N+](=O)[O-])cc3cc([N+](=O)[O-])cc(c23)C1=O)CCN1C(=O)c2cc([N+](=O)[O-])cc3cc([N+](=O)[O-])cc(c23)C1=O , the logged GI50 turned out to be 0.211 µM (active)

So for Cc1c2cc[n+](C)cc2c(C)c2c1[nH]c1ccc(O)c(OCC(F)(F)F)c12 , the logged GI50 turned out to be 0.807 µM (active)

So for O=C(N/C(=C\c1ccc(Cl)cc1)c1nc2ccccc2[nH]1)c1ccccc1 , the logged GI50 turned out to be 15.3 µM (inactive)

So for CN(C)CCNC(=O)c1cc2ccccc2c2nc3ccccc3nc12 , the logged GI50 turned out to be 1.43 µM (inactive)

So for Cc1cc2c(cc1C)[n+]([O-])c(C(=O)CC(=O)C(=O)Nc1ccccc1C(C)C)c(C)[n+]2[O-] , the logged GI50 turned out to be > 100 µM (inactive)

So for CCCC(=O)Oc1ccc(/C=N/NC(N)=S)nc1 , the logged GI50 turned out to be > 100 µM (inactive)

So for CCN1C2=NC(=O)N(C)C(=O)C2(Cl)C(C(SC)S(=O)(=O)c2ccc(C)cc2)c2ccccc21 (stereo not given) , the logged GI50 turned out to be 23.3 µM (inactive)

So for COc1cc2c(c(O)c1O)-c1ccc(OC)c(=O)cc1C(NC(C)=O)CC2 (stereo not given) , the logged GI50 turned out to be 5.25 µM (inactive)

So for CC(SC(=S)N1CCOCC1)c1cc2oc(=O)n(C)c2cc1Cl (stereo not given) , the logged GI50 turned out to be 57.4 µM (inactive)

###

test system: SK-OV-3; experiment: NCI tumour cell line growth inhibition, 48 h
Calls of active or inactive are those of the source. Rule as the data show it: active = GI50 up to about 1.1 µM and inactive = higher.
attribute.measured: GI50

The observed GI50 for Cc1cc(C)c(-n2c(-c3ccccc3)cs/c2=N\N=C2C=C(C(C)(C)C)C(=O)C(C(C)(C)C)=C2)c(C)c1 when tested with SK-OV-3 stands at > 100 µM (inactive)

The observed GI50 for Cn1c2ccccc2c2cc(N3CCCC3)c3c(c21)C(=O)N(c1ccccc1)C3=O when tested with SK-OV-3 stands at 58.9 µM (inactive)

The observed GI50 for CCNc1c(C(=O)N(CC)CC)c(=O)[nH]c2ncccc12 when tested with SK-OV-3 stands at > 100 µM (inactive)

The observed GI50 for COc1cc(C2c3cc4c(cc3C3OC[C@@H]2C3CO)OCO4)cc(OC)c1OC (stereo partly specified) when tested with SK-OV-3 stands at 54.2 µM (inactive)

The observed GI50 for C=CCN1C(=O)/C(=C/c2ccccc2)NC1=S when tested with SK-OV-3 stands at > 100 µM (inactive)

The observed GI50 for O=C1CC[C@H](NC(=O)Cc2ccccc2)C(=O)N1 [ANTINEOPLASTON A10] when tested with SK-OV-3 stands at > 1250 µM (inactive)

The observed GI50 for CCCN(CCC)c1c([N+](=O)[O-])cc(C(=O)N(CCO)CCO)cc1[N+](=O)[O-] when tested with SK-OV-3 stands at > 100 µM (inactive)

The observed GI50 for Nc1ccccc1C(=O)/C=C/c1c(O)ccc2ccccc12 when tested with SK-OV-3 stands at > 100 µM (inactive)

The observed GI50 for COC(=O)[C@@H](Cc1ccccc1)NNC(=O)OC(C)(C)C when tested with SK-OV-3 stands at > 100 µM (inactive)

The observed GI50 for CCn1c(C)nn2c(=O)c3ccccc3nc2c1=O when tested with SK-OV-3 stands at > 100 µM (inactive)

The observed GI50 for COc1ccc(NC(=O)C(=O)c2c(O)c3ccc(O)cc3oc2=O)c([N+](=O)[O-])c1 when tested with SK-OV-3 stands at > 100 µM (inactive)

The observed GI50 for CC(=O)Oc1ccc(/C=C/C(=O)O[C@H]2CCCC[C@@H]2OC(=O)/C=C/c2ccc(OC(C)=O)c(OC(C)=O)c2)cc1OC(C)=O when tested with SK-OV-3 stands at 11.8 µM (inactive)

The observed GI50 for Clc1ccc(/C(=C\c2ccccc2)Cn2ccnc2)cc1 when tested with SK-OV-3 stands at 16.5 µM (inactive)

The observed GI50 for CN(C)/N=N/c1ccccc1 when tested with SK-OV-3 stands at > 100 µM (inactive)

The observed GI50 for COC(=O)C1(C#N)C(C)(C)N=C(c2ccccc2)C12CCCCC2 (stereo unspecified) when tested with SK-OV-3 stands at > 100 µM (inactive)

The observed GI50 for COc1cccc2c1C1=CC(=O)CCC1C(C)(C)O2 (stereo unspecified) when tested with SK-OV-3 stands at > 100 µM (inactive)

The observed GI50 for Cc1ccc([C@H]2CC(=O)C[C@H](c3ccc(C)cc3)C23C(=O)c2ccccc2C3=O)cc1 when tested with SK-OV-3 stands at 31.6 µM (inactive)

The observed GI50 for O=C1/C(=C/c2cccc(F)c2)CCCc2ccccc21 when tested with SK-OV-3 stands at 27.2 µM (inactive)

The observed GI50 for Cc1cc(C)c(C(=O)C(C)C(c2ccccc2)c2ccc(Cl)cc2)c(C)c1 (stereo unspecified) when tested with SK-OV-3 stands at > 100 µM (inactive)

The observed GI50 for CN1CN(c2ccccc2)C2(CCN(CCCSc3ccccc3NC(=O)/C=C/c3ccccc3)CC2)C1=O when tested with SK-OV-3 stands at 5.92 µM (inactive)

The observed GI50 for CCOC(=O)C(=CNC(=S)Nc1c(CC)cccc1CC)C(=O)OCC when tested with SK-OV-3 stands at > 100 µM (inactive)
